Every entry's value here was drawn from patent EP4640678A1.

# Test system: human plasma
# methodNotes: determination of in-vitro anticoagulant effect in human plasma (APTT)
# Type: biochemical
# measurementContext: 10 µM; healthy human plasma, 37°C for 3 min

- querySmiles: "[2H]C([2H])([2H])NC(=O)c1ccc(NC(=O)[C@H](CC)n2cc(OC)c(-c3cc(Cl)ccc3-n3cc(C(F)(F)F)nn3)cc2=O)cc1F"
  APTT prolongation rate (%): "159.5%"
- querySmiles: "[2H]C([2H])([2H])NC(=O)c1ccc(NC(=O)[C@H](CC)n2cc(OC([2H])([2H])[2H])c(-c3cc(Cl)ccc3-n3cc(C(F)(F)F)nn3)cc2=O)cc1F"
  APTT prolongation rate (%): "142.5%"
- querySmiles: "CC[C@@H](C(=O)Nc1ccc(C(=O)O)c(Cl)c1)n1cc(OC)c(-c2cc(Cl)ccc2-n2cc(C(F)(F)F)nn2)cc1=O"
  APTT prolongation rate (%): "124.8%"
